# measured-on: T1, Human IL-11 (human, UniProt P20809 22-199)
# T1 construct: Recombinant human IL-11 (GenScript Cat. No. Z03108-1) or IL-11 secreted by human cells; the mature form is said to have 178 residues; also called recombinant human IL-11; endogenously produced IL-11
# T1 sequence: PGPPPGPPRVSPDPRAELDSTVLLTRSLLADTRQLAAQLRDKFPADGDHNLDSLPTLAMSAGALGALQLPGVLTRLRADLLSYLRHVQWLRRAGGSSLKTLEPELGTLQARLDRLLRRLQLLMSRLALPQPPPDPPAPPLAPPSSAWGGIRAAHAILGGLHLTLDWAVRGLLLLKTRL
# protocol-text: SPR (BIAcore T200) single cycle kinetics, human IL-11 on CM5 chip, 1:1 model
property-name: kon (M⁻¹ s⁻¹)
State the answer as a number, implicitly in M⁻¹ s⁻¹.

For reference, reported kon for YU100-G08 (antibody, human IgG1, V domains shown, Light chain shuffled human antibody; Only the variable domains are tied to the clone) VH: QVQLVQSGGGVVQPGRSLRLSCAASGFTFSSYGMHWVRQAPGKGLEWVAVISYDGSNKYYADSVKGRFTISRDNSKNTLYLQMNSLRAEDTAVYYCAKIGATDPLDYWGQGTLVTVSS VL: QSALTQPRSVSGSPGQSVTLSCTGTSSDVGGYNYVSWYQHYPGKAPKLMIFDVNERSSGVPDRFSGSKSGNTASLTISGLQAEDEADYYCCSYAGRYTWMFGGGTKVTVLG stands at 369000

Value of measured kon for the entry 02L (antibody, IgG1, V domains shown, C91L variant of the YU100-G08 VL) VH: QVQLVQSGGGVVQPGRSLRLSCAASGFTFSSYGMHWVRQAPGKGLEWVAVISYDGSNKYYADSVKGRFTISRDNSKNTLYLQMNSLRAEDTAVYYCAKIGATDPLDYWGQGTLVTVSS VL: QSALTQPRSVSGSPGQSVTLSCTGTSSDVGGYNYVSWYQHYPGKAPKLMIFDVNERSSGVPDRFSGSKSGNTASLTISGLQAEDEADYYCLSYAGRYTWMFGGGTKVTVLG : 463000
